List of Emax values.
- system name: human P2X4 (Homo sapiens, UniProt Q99571)
- Sequence (Q99571 1-388): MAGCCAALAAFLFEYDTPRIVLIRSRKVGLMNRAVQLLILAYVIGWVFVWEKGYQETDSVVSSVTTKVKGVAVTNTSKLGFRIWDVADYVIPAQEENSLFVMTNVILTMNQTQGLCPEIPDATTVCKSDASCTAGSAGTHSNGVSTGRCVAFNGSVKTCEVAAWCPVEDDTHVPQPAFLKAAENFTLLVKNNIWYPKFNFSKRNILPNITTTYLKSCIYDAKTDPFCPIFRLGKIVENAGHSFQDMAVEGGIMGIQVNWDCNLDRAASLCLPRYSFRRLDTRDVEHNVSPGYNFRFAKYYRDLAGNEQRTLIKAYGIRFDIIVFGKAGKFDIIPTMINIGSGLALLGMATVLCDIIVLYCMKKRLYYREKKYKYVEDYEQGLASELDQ
- test: Human P2X4 HEK Cell FLIPR Assay
- Type: cell-based
- measurement conditions: HEK293, HEK293 cells, agonist Bz-ATP at EC80; percentage of maximal inhibition; read-out: Human P2X4 HEK Cells (FLIPR Assay) avg Efficacy [%]
Return type: number; implicit unit %.

Cc1ccc(F)c(CC(=O)Nc2ccc(-n3cc(C(F)(F)F)cn3)c(S(N)(=O)=O)c2)c1Cl 62

I would be grateful if you could share the reported Emax for Cc1cn(-c2ccc(NC(=O)Cc3ccccc3Cl)cc2S(N)(=O)=O)c(C)n1 .
66

Any idea what its Emax is? The compound is CC(C)c1cnn(-c2ccc(NC(=O)Cc3ccccc3Cl)cc2S(N)(=O)=O)c1
68

# Emax lookup, item NS(=O)(=O)c1cc(NC(=O)Cc2c(Cl)cccc2Cl)ccc1-n1cc(F)cn1
89

Field request: Emax | item: NS(=O)(=O)c1cc(NC(=O)Cc2cc(Br)ccc2Cl)ccc1-n1cc(C(F)(F)F)cn1
88

Which Emax reading was recorded for the compound NS(=O)(=O)c1cc(NC(=O)Cc2ccccc2Cl)cnc1-n1cc(Cl)cn1 ?
73

====

- system name: human P2X4 (Homo sapiens, UniProt Q99571)
- test: Human P2X4 HEK Cell FLIPR Assay
- Format: cell-based
- measurement conditions: HEK293, HEK293 cells, agonist Bz-ATP at EC80; percentage of maximal inhibition; read-out: Human P2X4 HEK Cells (FLIPR Assay) avg Efficacy [%]
assay metric: Emax (%)
Lab book: enter the figure in %, no units written.

Recorded Emax for NS(=O)(=O)c1cc(NC(=O)Cc2ccccc2C(F)F)ccc1-c1cnn(C(F)F)c1 [Example 225] , please?
91

Item NS(=O)(=O)c1cc(NC(=O)Cc2c(Cl)cccc2C(F)(F)F)c(C(F)(F)F)cc1-n1cc(F)cn1 [Example 535] has what recorded Emax?
91

I have this molecule here, CC(C(=O)Nc1ccc(-n2cc(F)cn2)c(S(N)(=O)=O)c1)c1c(F)cccc1F (stereo not drawn) [Example 171] , and I need its recorded Emax.
90

====

- system name: human P2X4 (Homo sapiens, UniProt Q99571)
- test: Human P2X4 HEK Cell FLIPR Assay
- Type: cell-based
- measurement conditions: HEK293, HEK293 cells, agonist Bz-ATP at EC80; percentage of maximal inhibition; read-out: Human P2X4 HEK Cells (FLIPR Assay) avg Efficacy [%]
- Experimental: HEK293 cells stably expressing human P2X4 were plated in poly-D-lysine-coated 384-well plates at a seeding density of 30000 cells/well and incubated overnight. P2X4 function was assessed by measuring intracellular calcium changes using the calcium-chelating dye Fluo8-AM (Molecular Devices) on a fluorescent imaging plate reader (FLEX/FLIPR station; Molecular Devices). […] The EC80 value of Bz-ATP was determined each assay day prior to compound profiling. […]
assay metric: Emax (%)
# output: bare number, implied unit %

molecule	unit abbrev	Emax
CC(C)(O)c1cnn(-c2ccc(NC(=O)Cc3ccccc3F)cc2S(N)(=O)=O)c1 [Example 237]	%	72
NS(=O)(=O)c1cc(NC(=O)Cc2ccccc2Cl)ccc1-n1cc(CC(F)F)cn1 [Example 259]	%	91

Emax lookup needed for N#Cc1cnn(-c2cc(C(F)(F)F)c(NC(=O)Cc3cccc(C(F)(F)F)c3Cl)cc2S(N)(=O)=O)c1 [Example 488] , thanks.
78
